Biological target: T1, Macaca fascicularis (mf) RET.mmh (Macaca fascicularis)
T1 construct: also called monkey RET
T1 chain: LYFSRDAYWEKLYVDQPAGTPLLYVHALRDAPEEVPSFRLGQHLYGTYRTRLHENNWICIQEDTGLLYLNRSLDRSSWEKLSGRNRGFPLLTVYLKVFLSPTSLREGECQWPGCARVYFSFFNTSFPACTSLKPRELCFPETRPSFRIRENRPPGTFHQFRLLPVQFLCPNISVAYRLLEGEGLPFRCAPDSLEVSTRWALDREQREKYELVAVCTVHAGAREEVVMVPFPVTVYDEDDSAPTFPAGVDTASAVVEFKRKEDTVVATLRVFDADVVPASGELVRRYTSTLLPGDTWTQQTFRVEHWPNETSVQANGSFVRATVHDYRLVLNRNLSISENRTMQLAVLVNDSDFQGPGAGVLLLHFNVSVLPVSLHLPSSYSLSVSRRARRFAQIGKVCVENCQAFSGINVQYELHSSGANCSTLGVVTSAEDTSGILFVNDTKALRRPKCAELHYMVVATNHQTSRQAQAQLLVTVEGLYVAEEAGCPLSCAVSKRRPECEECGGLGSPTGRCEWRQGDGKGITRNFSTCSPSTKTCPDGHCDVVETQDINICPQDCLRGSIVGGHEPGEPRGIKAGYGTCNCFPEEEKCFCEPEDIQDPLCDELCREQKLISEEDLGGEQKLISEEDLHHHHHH
Experiment: SPR Biacore T200, mAb capture, 25 C
PROPERTY_LABEL: pKd
FYI, pKd means -log10 of a concentration in mol per litre.

BINDER | pKd
H4H8087P (antibody, human IgG4, V domains shown, human IgG4 Fc (H4H prefix)) VH: QVQLVESGGGVVQPGRSLRLSCAASGFSFSSYGMHWVRQAPGKGLEWVAVMWYDGSNEYYADSVKGRFIISRDNSKSTLYLEMNSLRAEDTALYYCAREDWDEGYYYGMDVWGQGTTVTVSS VL: DIQMTQSPSSLFASVGDRVTITCRASQDIRYDLGWYQQKPGKAPKRLIYASSILESGVPSRFSGSGSGTEYTLTISTLQSEDFAIYYCLQHNSFPWTFGQGTKVEIK | 9.37
H4H8046P (antibody, human IgG4, V domains shown, human IgG4 Fc (H4H prefix)) VH: QVQLVQSRDEVKKPGASVKVSCKASGYTFTTYGISWVRQAPGQGLEWMGWINTYNGDTNYAQKVQDRVIMTTDTSTSTAYMELRSLRSDDTAVYFCAGARPLGGRRAFDIWGQGTMVTVSS VL: DIQMTQSPSSLSASVGDRVTITCRASQGISHYLAWYQQKPGKVPKLLIYAASTLQSGVPSRFSGSGSGTDFTLTISSLQPEDVATYYCQKYNSVPWTFGQGTKVEIK | 8.95
H4H8056P (antibody, human IgG4, V domains shown, human IgG4 Fc (H4H prefix)) VH: QVQLVESGGGVVQPGRSLRLSCAASGFTFRNYGMHWVRQAPGKGLEWVAVKRYDGSDEYFVDSVKGRFTISRDNSKNTLFLQMNSLRVDDTAVYYCARETPITGTTLDYWGQGTLVTVSS VL: DIQMTQSPSSLSASVGDRVTITCRTSQSITNYLNWYQQKPGKAPKLLIYAASRSQSGVPSRFSGSGSGTDFTLTISSLQPEDFATYYCQQSYSTPLTFGGGTKVEIK | 8.57
H4H8045P (antibody, human IgG4, V domains shown, human IgG4 Fc (H4H prefix)) VH: EVQLVESGGALVQPGGSLRLSCAASGFTFSNYAMTWVRQAPGMGLEWVSGISSSGASTFYADSVKGRFTISRDNSKNTLYLQMNSLRAEDTAVYYCAKEDYWGWFDYWGQGTLVTVSS VL: DIQLTQSPSFLSASVGDRVTITCWASQDVSSYLAWYQQEPGKAPKVLIYDASTLQSGVPSRFSGSGSGTEFTLTISSLQPEDFAPYYCQQLNSYPYTFGQGTKLEIK | 7.84
H4H8083P (antibody, human IgG4, V domains shown, human IgG4 Fc (H4H prefix)) VH: QVQLVESGGGVVQPGRSLRLSCAASGFTFNNYVMHWVRQAPGKGLEWVALIWYDGSNKYYADSVKGRFTISRDNSKNALNLQMNSLRAEDTAVYFCARVSIAARNYYYGGLDVWGQGTTVTVSS VL: EIVLTQSPGTLSLSPGERATLSCRASQSVSSTYLAWYQQKPGQAPRLLIYGASSRATGIPDRFSGSGSGTDFTLTISRLEPEDFAVYYCQHYGGSPLTFGGGTKVEIK | 8.46
H4H8058P (antibody, human IgG4, V domains shown, human IgG4 Fc (H4H prefix)) VH: QVQLVESGGGVGQPGRSLRLSCVASGFTFRNYGMHWVRQAPGKGLDWVAIIGYDGSKEYNVDSVKGRFTISRDNSKNTLYLQMNSLGAEDTAIYYCARESPITGTTFDYWGQGTLVTVSS VL: DIQMTQSPPSLSASVGDRVTITCRASQSIGNYLNWYQQKPGKAPKILIYAASRLQSGVPSRFSGSGSGTDFTLTISSLQPEDFATYYCQQSYSTPLTFGGGTKVEIK | 8.63
H4H8085P (antibody, human IgG4, V domains shown, human IgG4 Fc (H4H prefix)) VH: QVQLVESGGGVVQPGRSLRLSCTASGFTFDNYGMHWVRQAPGKGLEWVAVISYDGSNTFYADSVKGRFTISRDNSKNALYLQMNSLRAEDTAVYYCAKDLEFDILIGYPFDSWGRGTLVTVSS VL: DIQLTQSPSFLSASVGDRVTITCWASQDISRYLAWYQQKPGKAPNLLIYAASTLQSGVPSRFSGSGSGTEFTLTINSLQPEDFATYYCQQLFSYPRTFGQGTKVEIK | 8.47
H4H8066P (antibody, human IgG4, V domains shown, human IgG4 Fc (H4H prefix)) VH: EVQLVESGGGLVQPGGSLRLSCEASGFTFSRYAMTWVRQAPGKGLEWVSGISGSGGSTFYVDSLQGRFTLSRDNSKHTLFLQMNSLRAEDTAIYYCAKENTYGHFDYWGQGTLVTVSS VL: DIQLTQSPSFLSASVGDRVTITCWASQDISTYLAWYQQKPGKAPQVLIYAASSLQYGVPSRFSGSGSGTEFTLTITSLQPEDFATYYCQQLIGYPYIFGQGTKLEIK | 7.86

Let us examine a further case.
Query: What value of measured pKd is listed for H4H8067P (antibody, human IgG4, V domains shown, human IgG4 Fc (H4H prefix)) VH: QVQLVESGGGVVQPGRSLRLSCVASGFTFSNYGMHWVRQAPGKGLEWVALIWYDGSNKYFADSVKGRFTISRDNSKRMMFLEMNSLRAEDTAIYYCTRDRLFDFWGQGTLVTVSS VL: AIQMTQSPSSLSASVGDRVSITCRASQDIRHDLGWFHQKPGKAPKLLIYAASTLQSGVPSRFGGSGSGTDFTLTITSLQPEDFGTYYCLQDYNYPATFGQGTRLEIK ?
Reply: 6.41

Every entry's value here was drawn from patent US20220185900A1.
